# Tested on: upland rice (Oryza sp., var. Tebonnet, RICE)
# Assay notes: Pre-emerge test, crop safety
# Assay type: in vivo
# Condition label: 63 g ai/ha; rating scale 0-100, 14 days after application
This listing pairs compounds with measured Pre-emerge phytotoxicity rating, crop damage RICE.
Measurement type: Pre-emerge phytotoxicity rating, crop damage RICE

Compound	Val
COc1c(Cl)cc(F)c(N2C(=O)c3ccccc3C2=O)c1NC(=O)c1ccc(F)cc1F [13-4]	0
COc1c(Cl)cc(F)c(-n2c(=O)cc(C(F)(F)F)n(C)c2=O)c1CC(Cl)C(=O)OCC(F)(F)C(F)(F)C(F)(F)F (single isomer, unassigned) [14-23]	0
COc1c(Cl)cc(F)c(-n2c(=O)cc(C(F)(F)F)n(C)c2=O)c1CC(Cl)C(=O)OCC(F)(F)C(F)(F)C(F)(F)F (single isomer, unassigned) [14-24]	0
COc1c(Cl)cc(F)c(-n2c(=O)cc(C(F)(F)F)n(C)c2=O)c1CC(Cl)C(=O)OCC(C)C (single isomer, unassigned) [14-14]	0
COc1c(Cl)cc(F)c(-n2c(=O)cc(C(F)(F)F)n(C)c2=O)c1CC(Cl)C(=O)OCCC(C)C (single isomer, unassigned) [14-16]	0
COCCOC(=O)C(Cl)Cc1c(OC)c(Cl)cc(F)c1-n1c(=O)cc(C(F)(F)F)n(C)c1=O (centres unmarked) [14-25]	90
COc1c(Cl)cc(F)c(-n2c(=O)cc(C(F)(F)F)n(C)c2=O)c1CC(C)(Cl)C(=O)OCc1ccccc1 (centres unmarked) [14-41]	0
O=C(Nc1cc(Cl)ccc1N1C(=O)C2CCCCN2C1=O)c1ccc2ccccc2c1 (centres unmarked) [12-8]	30
Nc1c(O)c(Cl)cc(F)c1N1C(=O)C2CCCCN2C1=S (single isomer, unassigned) [12-3]	10
CCCCCOC(=O)C(Cl)Cc1c(OC)c(Cl)cc(F)c1-n1c(=O)cc(C(F)(F)F)n(C)c1=O (single isomer, unassigned) [14-11]	0
COC(=O)C(Cl)Cc1c(OC)c(Cl)cc(F)c1-n1c(=O)cc(C(F)(F)F)n(C)c1=O (centres unmarked) [14-3]	0
COc1c(Cl)cc(F)c(-n2c(=O)cc(C(F)(F)F)n(C)c2=O)c1CC(C)(Cl)C(=O)OC(C)C (centres unmarked) [14-39]	0
COc1c(Cl)cc(F)c(-n2c(=O)cc(C(F)(F)F)n(C)c2=O)c1CC(Cl)C(=O)OCCC#N (centres unmarked) [14-29]	0
COc1c(Cl)cc(F)c(-n2c(=O)cc(C(F)(F)F)n(C)c2=O)c1CC(Cl)C(=O)OC(C)(C)C (centres unmarked) [14-18]	0
